Consider the following compounds and their measured pIC50 readings.
system: NCI-H69; experiment: Inhibitory activity against drug resistant H69/LX4 line overexpressing P-glycoprotein; assay type: functional, cell-based; settings: Homo sapiens, read-out: IC50
Please keep in mind that pIC50 is minus log10 of the molar concentration; only the number is needed.

In [3]: df
Out[3]:
                         structure_notation  readout_value
0  COc1nccc2c1ccc1nc3cccc(C(=O)NCCN(C)C)c3nc12           8.92
1   CN(C)CCNC(=O)c1cccc2nc3ccc4ccccc4c3nc12           8.72
2   CN(C)CCNC(=O)c1cccc2nc3ccc4nccnc4c3nc12           8.82
3  COc1ccnc2c1ccc1nc3cccc(C(=O)NCCN(C)C)c3nc12           8.49
4  COc1cccc2c1ccc1nc3cccc(C(=O)NCCN(C)C)c3nc12           8.85

Next:
Give pIC50 (NCI-H69) of the following compound: `COc1nccc2c1ccc1nc3cccc(C(=O)N[C@H](CO)CN(C)C)c3nc12`
8.92
